Entries and their OD450 values follow.
- experimental target: T1, human MSLN-R3-3 polypeptide (human)
- T1 construct: also called human MSLN-R3-3 protein; hMSLN-R3-3
- assay summary: ELISA on coated antigen, antibody 0.001 nM

# binder, OD450 (OD450)
rows = [
    ("S009-F2.23.12 (antibody, human IgG1, kappa, V domains shown, Human-murine chimeric antibody: murine VH/VL on human IgG1 heavy and kappa light constant regions) VH: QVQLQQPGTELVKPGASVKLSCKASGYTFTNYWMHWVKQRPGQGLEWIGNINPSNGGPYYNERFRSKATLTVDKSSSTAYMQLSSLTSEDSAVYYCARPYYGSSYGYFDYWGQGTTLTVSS VL: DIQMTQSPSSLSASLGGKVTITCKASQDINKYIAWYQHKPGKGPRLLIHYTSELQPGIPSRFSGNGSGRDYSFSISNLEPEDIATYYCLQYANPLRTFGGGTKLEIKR", 0.05),
    ("S009-F2.47.1 (antibody, human IgG1, kappa, V domains shown, Human-murine chimeric antibody: murine VH/VL on human IgG1 heavy and kappa light constant regions) VH: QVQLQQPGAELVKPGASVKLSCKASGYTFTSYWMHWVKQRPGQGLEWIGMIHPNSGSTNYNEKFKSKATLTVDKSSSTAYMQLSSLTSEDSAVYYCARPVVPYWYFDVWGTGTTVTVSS VL: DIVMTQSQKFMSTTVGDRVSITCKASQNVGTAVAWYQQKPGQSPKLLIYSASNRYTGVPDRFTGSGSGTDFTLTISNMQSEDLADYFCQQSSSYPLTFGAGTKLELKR", 0.06),
    ("S009-F2.16.10 (antibody, human IgG1, kappa, V domains shown, Human-murine chimeric antibody: murine VH/VL on human IgG1 heavy and kappa light constant regions) VH: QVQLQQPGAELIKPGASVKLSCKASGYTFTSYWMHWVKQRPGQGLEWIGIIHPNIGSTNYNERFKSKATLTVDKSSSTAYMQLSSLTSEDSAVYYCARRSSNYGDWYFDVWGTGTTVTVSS VL: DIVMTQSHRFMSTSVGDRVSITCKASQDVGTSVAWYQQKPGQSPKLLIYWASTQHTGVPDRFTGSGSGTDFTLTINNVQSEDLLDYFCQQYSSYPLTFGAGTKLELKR", 0.05),
]
